molecular target: MAP/microtubule affinity-regulating kinase 4 (Homo sapiens); conditions: at 0.1 µM;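 also: values are averaged percent inhibition of MARK4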
reported property: inhibition (%)
Answer with a number only, understood to be in %.

- molecule: "NC(=O)c1sc(-n2cnc3ccc(C(F)(F)F)cc32)cc1OCc1ccccc1Br"
  system tested: "MAP/microtubule affinity-regulating kinase 4 (Homo sapiens)"
  reported property: "inhibition"
  value reported: 1.2
- molecule: "CNC(=O)c1cc(-c2ccc(F)cc2)cc(-c2ccc(S(=O)(=O)N3CCCC3)cc2)c1N"
  system tested: "MAP/microtubule affinity-regulating kinase 4 (Homo sapiens)"
  reported property: "inhibition"
  value reported: 0.61
- molecule: "CCNC(=O)O[C@H]1CN[C@H](C#Cc2cc3ncnc(Nc4ccc(OCc5cccc(F)c5)c(Cl)c4)c3s2)C1"
  system tested: "MAP/microtubule affinity-regulating kinase 4 (Homo sapiens)"
  reported property: "inhibition"
  value reported: 0.88
- molecule: "CC1=C(C(=O)Nc2cc(Cl)c3[nH]ncc3c2)C(c2ccc(C(F)(F)F)cc2)CC(=O)N1 (stereo not given)"
  system tested: "MAP/microtubule affinity-regulating kinase 4 (Homo sapiens)"
  reported property: "inhibition"
  value reported: 1.64

Turning now to a further molecule:
Measured inhibition, CCN1CCC(CC(=O)Nc2n[nH]c3nnc(-c4cccc(F)c4F)cc23)CC1 : 2.32

====

molecular target: Epidermal growth factor receptor (Homo sapiens) (UniProt P00533); details: at 1 µM;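 also: values are mean inhibition figures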
Sequence (P00533 whole entry): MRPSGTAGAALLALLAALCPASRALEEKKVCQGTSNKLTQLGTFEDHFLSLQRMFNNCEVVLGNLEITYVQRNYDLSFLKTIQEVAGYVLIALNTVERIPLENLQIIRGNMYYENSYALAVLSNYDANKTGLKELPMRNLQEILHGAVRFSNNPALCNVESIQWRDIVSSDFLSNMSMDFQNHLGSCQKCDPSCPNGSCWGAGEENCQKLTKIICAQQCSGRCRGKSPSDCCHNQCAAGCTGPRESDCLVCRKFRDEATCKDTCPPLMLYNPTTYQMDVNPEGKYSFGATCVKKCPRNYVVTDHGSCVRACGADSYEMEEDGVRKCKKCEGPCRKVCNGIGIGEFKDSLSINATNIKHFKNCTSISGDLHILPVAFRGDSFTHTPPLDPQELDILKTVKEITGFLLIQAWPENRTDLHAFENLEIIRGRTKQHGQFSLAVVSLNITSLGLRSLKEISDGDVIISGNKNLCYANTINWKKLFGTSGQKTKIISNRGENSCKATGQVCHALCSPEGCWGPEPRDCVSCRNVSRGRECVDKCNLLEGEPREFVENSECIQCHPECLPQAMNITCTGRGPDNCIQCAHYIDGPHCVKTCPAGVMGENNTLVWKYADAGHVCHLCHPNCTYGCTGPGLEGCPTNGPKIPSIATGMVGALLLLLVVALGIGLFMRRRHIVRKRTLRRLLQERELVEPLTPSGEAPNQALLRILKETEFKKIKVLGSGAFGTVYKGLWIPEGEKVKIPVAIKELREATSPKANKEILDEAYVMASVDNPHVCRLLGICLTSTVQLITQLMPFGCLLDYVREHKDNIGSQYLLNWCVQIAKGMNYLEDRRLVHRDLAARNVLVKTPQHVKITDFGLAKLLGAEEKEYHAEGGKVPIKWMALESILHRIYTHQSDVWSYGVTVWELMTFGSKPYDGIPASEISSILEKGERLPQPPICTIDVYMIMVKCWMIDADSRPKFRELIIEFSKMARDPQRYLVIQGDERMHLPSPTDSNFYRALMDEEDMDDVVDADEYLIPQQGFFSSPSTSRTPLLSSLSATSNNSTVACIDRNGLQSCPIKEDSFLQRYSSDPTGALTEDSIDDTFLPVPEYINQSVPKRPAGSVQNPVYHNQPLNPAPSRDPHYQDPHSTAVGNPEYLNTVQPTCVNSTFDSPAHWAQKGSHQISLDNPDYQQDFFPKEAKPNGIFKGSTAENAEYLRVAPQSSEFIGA
reported property: inhibition (%)
Please state the figure in %; there is no need to write the unit.

In the examples that follow, each entry is paired with its recorded inhibition.
- smiles entry: "CNC(=O)c1cc(-c2ccc(F)cc2)cc(-c2ccc(S(=O)(=O)N3CCCC3)cc2)c1N"
  inhibition [%]: 6.92
- smiles entry: "COc1cccc(-n2ncc3c(N/N=C/c4ccc(F)cc4)ncnc32)c1"
  inhibition [%]: 7.92
- smiles entry: "O=S(=O)(CCNCc1ccc(-c2ccc3ncnc(Nc4ccc(OCc5cccc(F)c5)c(Cl)c4)c3c2)o1)c1ccccc1"
  inhibition [%]: 83.3
- smiles entry: "Nc1nc(-c2cccc(Cl)c2)c(-c2ccc3ncccc3n2)s1"
  inhibition [%]: 6.93
- smiles entry: "COC(=O)Nc1nc2ccc(Oc3ccc(NC(=O)Nc4cccc(Cl)c4)cc3)cc2[nH]1"
  inhibition [%]: 7.64

So, COc1cccc(-c2c[nH]c3c(N/N=C/c4ccncc4)ncnc23)c1 ? Its inhibition was 41.9

Notebook: CS(=O)(=O)CCNCc1ccc(-c2ccc3ncnc(Nc4ccc(OCc5ccccc5)c(C(F)(F)F)c4)c3c2)o1 , inhibition read as 71.2

Lab note: CN(C)CCOc1ccc(-c2nc(-c3ccncc3)c(-c3ccc4c(c3)CC/C4=N\O)[nH]2)cc1 gave inhibition of 2.4

// inhibition lookup, compound = Cc1cccc(Nc2ncc(-c3ccccc3)o2)c1 , result: 2.82

inhibition for c1ccc(COc2ccc(Nc3ncnc4ccc(-c5ccco5)cc34)cc2)cc1 is 86.1

====

biological target: Serine/threonine-protein kinase D2 (Homo sapiens) (UniProt Q9BZL6); conditions: at 0.1 µM;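 also: reported percent inhibition values are means, part of the GSK PKIS kinase panel screen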
Sequence (Q9BZL6 whole entry): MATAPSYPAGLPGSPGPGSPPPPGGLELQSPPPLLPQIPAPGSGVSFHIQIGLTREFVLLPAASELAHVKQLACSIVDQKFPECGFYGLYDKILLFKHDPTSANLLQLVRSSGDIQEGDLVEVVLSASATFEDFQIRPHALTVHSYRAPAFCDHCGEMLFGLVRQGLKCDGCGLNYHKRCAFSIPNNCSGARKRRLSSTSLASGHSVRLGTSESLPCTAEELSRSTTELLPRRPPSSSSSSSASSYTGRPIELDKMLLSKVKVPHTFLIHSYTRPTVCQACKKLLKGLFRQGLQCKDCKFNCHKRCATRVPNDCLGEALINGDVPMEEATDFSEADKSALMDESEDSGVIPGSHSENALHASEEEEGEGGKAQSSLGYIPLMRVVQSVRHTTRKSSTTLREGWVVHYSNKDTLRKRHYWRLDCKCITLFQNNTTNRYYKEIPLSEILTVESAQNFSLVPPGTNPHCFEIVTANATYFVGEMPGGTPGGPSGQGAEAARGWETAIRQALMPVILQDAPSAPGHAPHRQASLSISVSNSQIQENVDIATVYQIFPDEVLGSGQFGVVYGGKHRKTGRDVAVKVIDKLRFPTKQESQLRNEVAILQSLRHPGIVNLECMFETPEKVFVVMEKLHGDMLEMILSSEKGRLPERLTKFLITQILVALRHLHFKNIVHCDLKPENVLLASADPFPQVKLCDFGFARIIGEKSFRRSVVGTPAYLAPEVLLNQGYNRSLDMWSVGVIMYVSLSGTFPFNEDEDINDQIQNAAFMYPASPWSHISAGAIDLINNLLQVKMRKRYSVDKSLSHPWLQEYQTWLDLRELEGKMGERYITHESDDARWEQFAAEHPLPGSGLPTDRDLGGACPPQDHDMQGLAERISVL
inhibition: recorded values
Write the value in % as a bare number.

- smiles entry: "FC(F)(F)c1cccc(-c2nn3ncccc3c2-c2ccnc(Nc3ccc4c(c3)OCCO4)n2)c1"
  quantity unit: "%"
  inhibition: 5.98
- smiles entry: "Cc1cccc(Nc2ncc(-c3ccccc3)o2)c1"
  quantity unit: "%"
  inhibition: 3.21
- smiles entry: "COc1cccc(-n2ncc3c(N/N=C/c4ccc(F)cc4)ncnc32)c1"
  quantity unit: "%"
  inhibition: 3.35
- smiles entry: "COc1cc(Nc2nccc(Nc3ccc4c(C)n[nH]c4c3)n2)cc(OC)c1OC"
  quantity unit: "%"
  inhibition: 1.03
- smiles entry: "CCCN(CCS(C)(=O)=O)Cc1ccc(-c2ccc3ncnc(Nc4ccc(OCc5cccc(F)c5)c(Cl)c4)c3c2)o1"
  quantity unit: "%"
  inhibition: 0.95
- smiles entry: "COc1cc2c(cc1Nc1nc(Nc3ccsc3C(N)=O)c3cc[nH]c3n1)N(C(=O)CN(C)C)CCC2(C)C"
  quantity unit: "%"
  inhibition: 17.5

Lab book: inhibition of CCn1c(-c2nonc2N)nc2c(C#CC(C)(C)O)nc(OC[C@H](N)c3ccccc3)cc21 noted as 5.65

Value of measured inhibition for the entry CCn1c(-c2nonc2N)nc2c(C#CC(C)(C)O)ncc(OC3CCNCC3)c21 : 3.98

Record COc1cc(/C=N/Nc2ncnc3[nH]ncc23)ccc1O , field inhibition: 2.81

Per the records, this molecule ( N#Cc1c(NC(=O)CN2CCOCC2)sc2c1CCCC2 ) has inhibition equal to 3.86

====

biological target: Tyrosine-protein kinase SYK (Homo sapiens) (UniProt P43405); settings: at 0.1 µM;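 also: reported percentages are mean inhibition values for SYK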
Each entry below carries its reported inhibition.
Could you give me the number in %? Just the number is fine.

- smiles entry: "COc1ccc(-c2cc3c(N)ncnc3o2)cc1"
  system tested: "Tyrosine-protein kinase SYK (Homo sapiens) (UniProt P43405)"
  quantity unit: "%"
  inhibition: 0.62
- smiles entry: "O=S(=O)(CCNCc1ccc(-c2ccc3ncnc(Nc4ccc(OCc5cccc(F)c5)c(Cl)c4)c3c2)o1)c1ccccc1"
  system tested: "Tyrosine-protein kinase SYK (Homo sapiens) (UniProt P43405)"
  quantity unit: "%"
  inhibition: -4.56
- smiles entry: "CCN1CCC(CC(=O)Nc2n[nH]c3nnc(-c4cccc(F)c4F)cc23)CC1"
  system tested: "Tyrosine-protein kinase SYK (Homo sapiens) (UniProt P43405)"
  quantity unit: "%"
  inhibition: -0.02
- smiles entry: "COc1cc(Nc2nccc(Nc3ccc4c(C)n[nH]c4c3)n2)cc(OC)c1OC"
  system tested: "Tyrosine-protein kinase SYK (Homo sapiens) (UniProt P43405)"
  quantity unit: "%"
  inhibition: -1.75

# ---- query compound ----
Short answer on Tyrosine-protein kinase SYK (Homo sapiens) (UniProt P43405) for Cc1ccc(O)cc1Nc1ccnc2cc(-c3ccccn3)ccc12 , inhibition: -5.01

====

molecular target: PAS domain-containing serine/threonine-protein kinase (Homo sapiens) (UniProt Q96RG2); details: at 0.1 µM
Sequence (Q96RG2 whole entry, the tested form may be a part): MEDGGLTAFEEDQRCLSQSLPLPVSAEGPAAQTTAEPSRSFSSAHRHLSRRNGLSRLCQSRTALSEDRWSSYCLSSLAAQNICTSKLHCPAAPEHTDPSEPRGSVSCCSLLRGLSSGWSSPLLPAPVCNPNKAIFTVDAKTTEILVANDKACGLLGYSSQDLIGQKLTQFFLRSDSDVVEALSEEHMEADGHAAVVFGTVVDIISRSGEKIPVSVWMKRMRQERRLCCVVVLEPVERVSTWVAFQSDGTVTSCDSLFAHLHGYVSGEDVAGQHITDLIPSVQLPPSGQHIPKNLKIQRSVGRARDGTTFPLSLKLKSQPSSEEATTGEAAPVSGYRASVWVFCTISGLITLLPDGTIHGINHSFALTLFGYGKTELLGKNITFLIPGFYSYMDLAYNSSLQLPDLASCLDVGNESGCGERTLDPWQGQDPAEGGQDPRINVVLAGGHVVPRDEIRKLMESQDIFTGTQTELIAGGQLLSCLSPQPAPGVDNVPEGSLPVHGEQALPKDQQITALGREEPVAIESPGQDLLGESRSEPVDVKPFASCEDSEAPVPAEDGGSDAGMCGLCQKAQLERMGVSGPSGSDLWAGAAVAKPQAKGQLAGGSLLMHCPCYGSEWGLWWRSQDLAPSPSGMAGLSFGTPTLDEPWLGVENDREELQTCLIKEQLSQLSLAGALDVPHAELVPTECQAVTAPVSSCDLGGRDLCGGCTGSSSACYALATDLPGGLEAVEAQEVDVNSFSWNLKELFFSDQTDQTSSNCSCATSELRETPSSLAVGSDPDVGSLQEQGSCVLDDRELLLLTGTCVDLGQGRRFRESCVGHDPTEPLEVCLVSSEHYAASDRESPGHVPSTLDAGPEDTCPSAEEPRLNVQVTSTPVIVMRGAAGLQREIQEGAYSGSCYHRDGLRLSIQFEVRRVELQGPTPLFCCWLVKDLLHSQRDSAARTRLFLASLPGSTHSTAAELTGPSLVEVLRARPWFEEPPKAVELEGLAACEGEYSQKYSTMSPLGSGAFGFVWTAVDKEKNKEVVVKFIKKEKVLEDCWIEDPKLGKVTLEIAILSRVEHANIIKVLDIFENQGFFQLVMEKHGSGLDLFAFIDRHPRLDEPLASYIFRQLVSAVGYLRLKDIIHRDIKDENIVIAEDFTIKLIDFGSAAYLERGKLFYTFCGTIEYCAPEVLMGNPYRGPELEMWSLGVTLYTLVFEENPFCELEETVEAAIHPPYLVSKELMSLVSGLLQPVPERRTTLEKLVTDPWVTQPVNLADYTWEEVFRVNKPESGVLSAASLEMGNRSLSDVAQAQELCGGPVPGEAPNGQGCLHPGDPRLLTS
Description: GSK_PKIS: PASK mean inhibition at 0.1 uM [Nanosyn]
reported property: inhibition
Give your result as the value with the unit written after it.

Some entries whose results are on file:
- smiles entry: "c1cc(-c2cnn3nc(N4CCOCC4)ccc23)nc(NC2CC2)n1"
  reported property: "inhibition"
  value reported: "0.49%"
- smiles entry: "CN1CCC(n2cnc(-c3ccc(F)cc3)c2-c2ccnc(Nc3ccccc3)n2)CC1"
  reported property: "inhibition"
  value reported: "-0.38%"
- smiles entry: "COC(=O)Nc1nc2ccc(Oc3ccc(NC(=O)Nc4cccc(Cl)c4)cc3)cc2[nH]1"
  reported property: "inhibition"
  value reported: "1.55%"
- smiles entry: "NS(=O)(=O)c1ccc(Nc2ncc(-c3ccccc3)o2)cc1"
  reported property: "inhibition"
  value reported: "-0.04%"
- smiles entry: "COc1ccc(CNC(=O)c2ccc(-c3cc(-c4nnc(C)o4)ccc3C)cc2)cc1"
  reported property: "inhibition"
  value reported: "2.29%"

inhibition reported for this molecule O=S(=O)(CCNCc1ccc(-c2ccc3ncnc(Nc4ccc(OCc5cccc(F)c5)c(Cl)c4)c3c2)o1)c1ccccc1 : -0.06%

# inhibition of Fc1ccc(-c2cc(-c3c[nH]nc3-c3ccccn3)ccn2)cc1 = -0.42%

The recorded inhibition for COc1cc(N2CCN(C(C)C)CC2)ccc1Nc1nc(Nc2ccc(F)cc2C(N)=O)c2cc[nH]c2n1 is -0.71%

inhibition measured on CCN1CCC(CC(=O)Nc2n[nH]c3nnc(-c4cccc(F)c4F)cc23)CC1 = 0.77%

// inhibition lookup, molecule = COc1cc(Nc2nccc(Nc3ccc4c(C)n[nH]c4c3)n2)cc(OC)c1OC , result: 1.32%

====

molecular target: Misshapen-like kinase 1 (Homo sapiens); conditions: at 1 µM
Description: GSK_PKIS: MINK mean inhibition at 1 uM [Nanosyn]
Class (by inhibition) -- low: < 8%; intermediate: ≥ 8% and < 30%; high: ≥ 30%

- compound: "COc1cc(Nc2nccc(Nc3ccc4c(C)n[nH]c4c3)n2)cc(OC)c1OC"
  discrete label: "intermediate"
- compound: "CN1CCC(n2cnc(-c3ccc(F)cc3)c2-c2ccnc(Nc3ccccc3)n2)CC1"
  discrete label: "high"
- compound: "Cc1cccc2c1NC(=O)/C2=N\\Nc1ccc(S(N)(=O)=O)cc1"
  discrete label: "high"
- compound: "CNC(=O)c1cncc(/C=C/c2ccccc2Cl)c1"
  discrete label: "intermediate"
- compound: "Cc1ccc2c(-c3ccnc(Nc4ccccc4)n3)c(-c3ccc(F)cc3)nn2n1"
  discrete label: "high"

q: Band of CN(C)CCOc1ccc(-c2nc(-c3ccncc3)c(-c3ccc4c(c3)CC/C4=N\O)[nH]2)cc1 ?
a: high

q: Categorize the following entry: Fc1ccc(-c2nn3ccccc3c2-c2ccncc2)cc1
a: intermediate

q: For NS(=O)(=O)c1ccc(Nc2ncc(-c3ccccc3)o2)cc1 , which inhibition bin applies?
a: high

====

molecular target: Tyrosine-protein kinase ABL1 (Homo sapiens); conditions: at 0.1 µM
Description: GSK_PKIS: ABL1 mean inhibition at 0.1 uM [Nanosyn]
Entries are grouped by inhibition into these classes: bin A = under 4%, bin B = from 4% up to 7%, bin C = 7% and over

These solved cases illustrate the format of a correct answer.
- smiles entry: "COc1cc(N2CCN(C(C)C)CC2)ccc1Nc1nc(Nc2ccc(F)cc2C(N)=O)c2cc[nH]c2n1"
  system tested: "Tyrosine-protein kinase ABL1 (Homo sapiens)"
  discrete label: "bin A"
- smiles entry: "Fc1cccc(COc2ccc(Nc3ncnc4sc(-c5ccco5)cc34)cc2Cl)c1"
  system tested: "Tyrosine-protein kinase ABL1 (Homo sapiens)"
  discrete label: "bin B"
- smiles entry: "CCc1nn2ncccc2c1-c1ccnc(NC2CC2)n1"
  system tested: "Tyrosine-protein kinase ABL1 (Homo sapiens)"
  discrete label: "bin B"
- smiles entry: "COc1cccc(-n2ncc3c(N/N=C/c4ccc(F)cc4)ncnc32)c1"
  system tested: "Tyrosine-protein kinase ABL1 (Homo sapiens)"
  discrete label: "bin C"
- smiles entry: "Cc1ccc(O)cc1Nc1ccnc2cc(-c3ccccn3)ccc12"
  system tested: "Tyrosine-protein kinase ABL1 (Homo sapiens)"
  discrete label: "bin C"
- smiles entry: "COC(=O)c1sc(-n2cnc3cc(OC)c(OC)cc32)cc1OCc1ccccc1C(F)(F)F"
  system tested: "Tyrosine-protein kinase ABL1 (Homo sapiens)"
  discrete label: "bin A"
- smiles entry: "CCCN1CCC(c2ccc(Nc3nc(Nc4cc(F)ccc4C(N)=O)c4cc[nH]c4n3)c(OC)c2)CC1"
  system tested: "Tyrosine-protein kinase ABL1 (Homo sapiens)"
  discrete label: "bin A"

Field: next compound
q: Hi there! Could you help me figure out the category for COc1ccc(-c2cc(-c3c[nH]nc3-c3ccccn3)ccn2)cc1 please?
a: bin C
